Form field: Binding affinity (RU) (one value per entry).
- Target desc: acetylcholine receptor
- Test name: SPR, AchR immobilised on chip, peptide at 10 uM
Numbers only here, please. The scale is RU.

Consider the worked cases shown below.
| Binder | Quantitative readout |
| --- | --- |
| RVLTR [5mer-282] | 77 |
| RWQRR [5mer-278] | 66 |
| KQYTK [5mer-590] | 81 |

Request: Please report the recorded Binding affinity (RU) for KSVLR [5mer-578] .
Result: 65

Request: Please report the recorded Binding affinity (RU) for KLLSR [5mer-553] .
Result: 72

Request: Please report the recorded Binding affinity (RU) for RSRYR [5mer-564] .
Result: 74

Request: Please report the recorded Binding affinity (RU) for RLYSR [5mer-552] .
Result: 63

Request: Please report the recorded Binding affinity (RU) for KWISK [5mer-296] .
Result: 55
